- Test system: NCI-H226 cells
- procedure details: Viability assay in NCI-H226 (Yap-dependent) cells, CyQUANT
- Assay type: cell-based
- test parameters: Homo sapiens, 96 hour incubation
measured attribute: IC50

Below: 2 compounds and their reported IC50.
| smiles entry | IC50 |
| --- | --- |
| Cc1ccc2c(c1)c1cc(C(=O)NCc3ccncc3)ccc1n2-c1ccc(C(F)(F)F)cc1 | 0.1 to 1 µM |
| Cc1ccc2c(c1)c1cc(C(=O)N[C@H](c3ccccc3)[C@H](C)O)ccc1n2-c1ccc(C(F)(F)F)cc1 | 0.1 to 1 µM |

Record IC50 for all entries; do not skip any.
1. O=C(NC1CC1)c1cc2c3cccnc3n(-c3ccc(C(F)(F)F)cc3)c2cn1
2. CNC(=O)c1ccc2c(c1)c1cc(F)ccc1n2-c1ccc(C(F)(F)F)cc1

Resp:
0.1 to 1 µM
0.001 to 0.1 µM
